System: OVCAR-4 ovarian
assay.text: NCI tumour cell line growth inhibition, 48 h
Listed here: items and their measured TGI.

The cases that follow already have their TGI on record.
>>> experimental_result("CCO/C=N/NC(=O)CSc1nc2ccc(I)cc2c(=O)n1Cc1ccccc1")
"> 100 µM"
>>> experimental_result("Cc1ccc(-c2nc3ccc([N+](=O)[O-])cc3[nH]2)cc1")
"> 100 µM"
>>> experimental_result("CCSc1[nH]c(Nc2nc(-c3ccccc3)n(-c3ccccc3)n2)c(C(N)=O)c1C(N)=O")
"> 10 µM"

Which TGI is listed for Nc1c(C(=O)Nc2cccc(Br)c2)sc2nc3c(cc12)C(=O)CCC3 ?
> 100 µM

Now give it for O=C(O)CSc1n[nH]c(-c2ccccc2)n1 too.
> 100 µM

Now give it for O=C(c1cc(Cl)cc(Cl)c1)N1CCN(C(=O)c2cc(Cl)cc(Cl)c2)C1=S too.
38.4 µM

Now give it for Cc1ccc(/C=C/c2c(C(=O)/C=C/c3ccc(C(F)(F)F)cc3)c(C)nc3ccccc23)cc1 too.
3.37 µM

Now give it for Cc1ccc(-c2c3c(n(C4OC(CO)C(O)C(O)C4O)c(=S)c2C#N)CC(C)(C)CC3=O)cc1 (stereo not given) too.
> 100 µM

Now give it for Cc1ccc(NC(=O)C2C(=O)N(c3ccc(C)c(C)c3)C(=O)C2N=N)cc1C (stereo not given) too.
> 100 µM

Now give it for CC[C@@]12N=C(N(C)C)C[C@]1(O)ON=C2C too.
> 100 µM

* * *

Listed here: items and their measured TGI.
Test system: HOP-62 NSCLC
assay.text: NCI tumour cell line growth inhibition, 48 h
State just the number; it will be interpreted in µM.

>>> experimental_result("COC(=O)C1C=CN(N(C)C)C2=C1C(=O)c1c(O)cccc1C2=O (centres undefined)")
8.42
>>> experimental_result("O=C(CC(=O)c1ccccc1)CC(O)(c1ccccc1)c1ccccc1")
12
>>> experimental_result("COc1cccc2c1C(=O)c1c(O)c3c(c(O)c1C2=O)CC(O)(/C(C)=N/NC(=O)CCC(=O)N/N=C(\\C)C1(O)Cc2c(O)c4c(c(O)c2C(OC2CC(N)C(O)C(C)O2)C1)C(=O)c1c(OC)cccc1C4=O)CC3OC1CC(N)C(O)C(C)O1 (centres undefined)")
1.57

Which TGI is listed for COc1cccc2c1C(=O)c1c(O)c3c(c(O)c1C2=O)C[C@@](O)(C(=O)CO)C[C@@H]3OC1CC(N)C(OC)C(C)O1 (some centres undefined) ?
0.354

* * *

Listed here: items and their measured TGI.
Tested on: EKVX NSCLC
assay.text: NCI tumour cell line growth inhibition, 48 h
State just the number; it will be interpreted in µM.

>>> experimental_result("Nc1nccc2c1ccn2-c1ccc(NC(=O)c2ccc(N3CCOCC3)c(C(F)(F)F)c2)cc1")
70.2

In the following, a different compound is considered.
Which TGI is listed for CC12CCC3C(CCC4=CC(O)CCC43C=O)C1(O)CCC2c1ccc(=O)oc1 (stereo not given) ?
0.059

* * *

System: K-562 leukemia
assay.text: NCI tumour cell line growth inhibition, 48 h
assay.endpoint: TGI

>>> experimental_result("CC(=O)Nc1ccc2cc(C)c(=O)[nH]c2n1")
"> 100 µM"
>>> experimental_result("Cc1c(CNc2ccc(C(=O)NC(CC(=O)O)C(=O)O)cc2)ccc2nc(N)nc(N)c12 (stereo not drawn)")
"> 1000 µM"

Which TGI is listed for CC(=O)O[C@H]1CCC2[C@@H]3CCC4=C(O)c5nocc5C[C@]4(C)C3CC[C@@]21C (stereo partly drawn) ?
> 100 µM

* * *

Test system: KM12 colon
assay.text: NCI tumour cell line growth inhibition, 48 h
Listed here: items and their measured TGI.
State just the number; it will be interpreted in µM.

>>> experimental_result("O=C(NS(=O)(=O)OCC(Cl)(Cl)Cl)SCCC(F)(F)C(F)(F)C(F)(F)C(F)(F)C(F)(F)C(F)(F)F")
43.5
>>> experimental_result("CC(=O)OC1O[C@@H](C(C)(C)O)CC[C@@H]1[C@H]1CC[C@@]2(C)C3=C(CC[C@]12C)[C@@]1(C)C[C@@H](OC(=O)CC(C)(O)CC(=O)O)[C@H](OC(C)=O)C(C)(C)C1CC3 (some centres undefined)")
44.9
>>> experimental_result("CCOC(=O)C(=Cc1cccc(Cl)c1)C(=O)OCC")
5.8
>>> experimental_result("CCN1CCN=c2c3cc(OC)ccc3n3cnc4ccc1c2c43")
1.21
>>> experimental_result("CCN(CC)c1nc(-c2ccc(Cl)cc2Cl)nc2ccccc12")
59.8

Which TGI is listed for Cc1ccc(NC(=S)NNC(=O)c2cc(-c3ccccc3)nc3ccccc23)cc1 ?
37.7

* * *

Tested on: HCC-2998 colon
assay.text: NCI tumour cell line growth inhibition, 48 h
Listed here: items and their measured TGI.

>>> experimental_result("CCOC(=O)C1(c2ccccc2)CCC(=O)CC1")
"> 100 µM"

In the following, a different molecule is considered.
Report TGI for CN(CCN(C)C(=S)NN)C(=S)NN tested on HCC-2998 colon.
> 100 µM

* * *

Listed here: items and their measured TGI.
Tested on: MDA-MB-435
assay.text: NCI tumour cell line growth inhibition, 48 h
State just the number; it will be interpreted in µM.

>>> experimental_result("CC1(C)OC(=C(C#N)C#N)C(C#N)=C1/C=C/c1ccncc1")
10.6
>>> experimental_result("N#CC1(C#N)C2CCCCC23OC(=N)C1(C#N)C(c1ccccc1)O3 (stereo not given)")
83.6
>>> experimental_result("Cc1ccc(/C=C/c2c(C(=O)/C=C/c3ccc(C(F)(F)F)cc3)c(C)nc3ccccc23)cc1")
2.89
>>> experimental_result("CCN1CCN=c2c3cc(OC)ccc3n3cnc4ccc1c2c43")
1.31
>>> experimental_result("O=C(NC(CO)Cc1ccc(Oc2cc(CC(CO)NC(=O)OCc3ccccc3)ccc2OC(=O)OCc2ccccc2)cc1)OCc1ccccc1 (stereo not given)")
45

Which TGI is listed for CCOc1ccc2nc(S/C(=C/C=C(C#N)C#N)c3ccc(C)cc3)sc2c1 ?
59.4

Now give it for COc1ccc(C(=O)/C=C/c2ccncc2)cc1OC too.
28.1

Now give it for Cc1cn(CCCCCOC(=O)NC(CCCN=C(N)N)C(=O)O)c(=O)[nH]c1=O (stereo not given) too.
47.5

Now give it for C=Cc1c(C)c2cc3nc(cc4[nH]c(cc5nc(cc1[nH]2)C(C)=C5CCC(=O)O)c(CCC(=O)OC)c4C)[C@@]1(C)C3=CC=C(C(=O)OC)[C@H]1C(=O)OC too.
1.34

Now give it for N#Cc1c(-c2ccc(F)cc2)c(-c2ccc(F)cc2)nn(CCO)c1=O too.
0.608

Now give it for COC1C(O)=C2C(=O)O/C(C)=C/C=C/C=C/C=C\CC(c3ccccc3)NC(=O)\C=C/C=C\C=C\C=C\[C@@]2(C)[C@@H]1O (stereo not given in full) too.
0.044

* * *

Tested on: EKVX NSCLC
assay.text: NCI tumour cell line growth inhibition, 48 h
Listed here: items and their measured GI50.

Which GI50 is listed for CCCn1c(N)c(C(=O)N/N=C(/C)c2cc3cccc(OC)c3o2)sc1=S ?
32.6 µM

Now give it for N#C/C=C(\c1ccc([N+](=O)[O-])cc1)n1nnc2cc(Cl)c(Cl)cc21 too.
1.91 µM

Now give it for CC(C)=CCc1cc(O)cc2c1OC(C=C(C)C)C1=C2C(=O)C2=C(NCCS2(=O)=O)C1=O (stereo not given) too.
2.73 µM

Now give it for Ic1ccc(-n2nnnc2-c2cnoc2-c2ccccc2)cc1 too.
7.49 µM

* * *

Test system: M14 melanoma
assay.text: NCI tumour cell line growth inhibition, 48 h
Listed here: items and their measured TGI.
State just the number; it will be interpreted in µM.

>>> experimental_result("COC12C=C/C(=C(/C(=O)OCc3ccncc3)C(=O)CCCCCCCCC3(OC)C=C/C(=C(/C(=O)OCc4ccncc4)C(=O)CCCCCCCC1)O3)O2")
0.574
>>> experimental_result("Cc1ccc(NC(=S)NNC(=O)c2cc(-c3ccccc3)nc3ccccc23)cc1")
26.8
>>> experimental_result("O=C(NS(=O)(=O)OCC(Cl)(Cl)Cl)SCCC(F)(F)C(F)(F)C(F)(F)C(F)(F)C(F)(F)C(F)(F)F")
48.6

In the following, a different compound is considered.
Which TGI is listed for CC1(C)OC(=C(C#N)C#N)C(C#N)=C1/C=C/c1ccncc1 ?
6.56

* * *

Tested on: M19-MEL melanoma
assay.text: NCI tumour cell line growth inhibition, 48 h
assay.endpoint: TGI

The cases that follow already have their TGI on record.
>>> experimental_result("COc1cc2c(cc1O)C1C(O)C(O)C=C3CCN(C2)C31 (stereo not given)")
"8.84 µM"
>>> experimental_result("COc1cc(/C=C/C(=O)O)ccc1C(=O)OCc1ccccc1")
"> 100 µM"
>>> experimental_result("O=C(CSc1nnc(-c2ccc(N=Cc3ccc(Cl)cc3)cc2)o1)Nc1ccc(Cl)cc1")
"> 100 µM"

Which TGI is listed for CCCCCCC[CH2][Sn]1([CH2]CCCCCCC)[O]C(=O)c2cccnc2[S]1 ?
> 100 µM

Now give it for N=c1ccn2c(n1)OC1C(O)C(CO)OC12 (stereo not given) too.
> 1000 µM

Now give it for CC1=C2CCCC2=C/C(=N/Nc2ccc([N+](=O)[O-])cc2[N+](=O)[O-])CC1 too.
> 100 µM

Now give it for CCOC(=O)C(C)(C)Oc1ccc2c(C)c(-c3ccc(Cl)cc3)c(=O)oc2c1 too.
> 100 µM

Now give it for Cc1ccc(NC(=O)C2C(=O)N(c3ccc(C)c(C)c3)C(=O)C2N=N)cc1C (stereo not given) too.
> 100 µM

Now give it for O=C(Nc1cc(Cl)ccc1Cl)c1cc2cccc(Cl)c2oc1=O too.
> 100 µM

Now give it for COC1C(O)=C2C(=O)O/C(C)=C/C=C/C=C/C=C\CC(c3ccccc3)NC(=O)\C=C/C=C\C=C\C=C\[C@@]2(C)[C@@H]1O (stereo not given in full) too.
0.273 µM
